Documented kon across a set of binders
target: DN-IV quality control recombinant protein (produced by the company) (dengue virus); assay: BLI, antibody on AMC sensor
// units = M⁻¹ s⁻¹; emit number, no label

Q: Please report the measured kon for Mutation 1-7 (antibody, V domains shown) VH: EVQLQQPGPELVKPGASVKMSCKASGYTFTSSVIHWVRQKPGQGLEWIGYMNPYNDGLKYNEKFIGKAILTSDKSSSTAYMQLSSLTSEDSAVYYCTKEGLFYVFDYWGQGTSVTVSS VL: QIVLTQSPAIMSASPGEKVTMTCSATSSLSYMHWYQQKSGTSPKRWIYDSSKLASGVPVRFSGSGSGTSYSLTISSMEAEDAATYFCQWWRSDLPTFGAGTKLELKR
Result: 368000

Q: Tell me kon reported for Mutation 1-15 (antibody, V domains shown) VH: EVQLQQPGPELVKPGASVKMSCKASGYTFTSTVIHWVRQKPGQGLEWIGYMNPYNDGIKYNEKFIGKAILTSDKSSSTAYMQLSSLTSEDSAVYYCTKEGLFYVFDYWGQGTSVTVSS VL: QIVLTQSPAIMSASPGEKVTMTCSATSSISYMHWYQQKSGTSPKRWIYDSSKLASGVPVRFSGSGSGTSYSLTISSMEAEDAATYFCQYWRSDLPTFGAGTKLELKR
Result: 44800

Q: Hello, please tell me recorded kon for this one: Mutation 1-42 (antibody, V domains shown) VH: EVQLQQPGPELVKPGASVKMSCKASGYTFTSTVIHWVRQKPGQGLEWIGYMNPYNDGIKYNEKFIGKAILTSDKSSSTAYMQLSSLTSEDSAVYYCTREGLFYVFDYWGQGTSVTVSS VL: QIVLTQSPAIMSASPGEKVTMTCSATSSLSYMHWYQQKSGTSPKRWIYDTSKLASGVPVRFSGSGSGTSYSLTISSMEAEDAATYFCQQWRSDLPTFGAGTKLELKR
Result: 393000
